- SYSTEM: Cellular tumor antigen p53 (Homo sapiens) (UniProt P04637)
- Sequence (P04637 whole entry, looked up): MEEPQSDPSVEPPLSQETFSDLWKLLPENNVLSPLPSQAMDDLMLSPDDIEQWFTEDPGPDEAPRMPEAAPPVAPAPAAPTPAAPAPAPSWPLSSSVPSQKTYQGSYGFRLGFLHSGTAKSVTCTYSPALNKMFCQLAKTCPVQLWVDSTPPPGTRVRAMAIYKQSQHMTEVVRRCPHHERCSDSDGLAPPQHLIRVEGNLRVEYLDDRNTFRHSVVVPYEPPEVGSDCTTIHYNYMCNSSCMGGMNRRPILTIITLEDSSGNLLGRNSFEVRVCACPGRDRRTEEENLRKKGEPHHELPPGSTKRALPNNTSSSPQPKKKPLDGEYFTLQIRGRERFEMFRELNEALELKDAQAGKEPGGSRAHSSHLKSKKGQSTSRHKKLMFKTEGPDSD
- PROTOCOL_SUMMARY: Primary qHTS for small molecule compounds that upregulate eGFP-tagged delta133p53alpha (in N-terminal) cells. (AID 2060322);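 note: cells pre-induced with doxycycline then dosed without doxycycline; 0% = DMSO vehicle and 100% = reference activator; nearly all actives have a fitted effect of over 75% in size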
- SETTINGS: NCI-H358 eGFP-delta133p53alpha fluorescence, 24 h; hits give high values
Results filed as inconclusive are left out.
MEASURE: activation (%)
Give just the number in %; leave the unit off.

Example entries and their recorded answers appear below.
| COMPOUND | READOUT_UNIT | activation |
| --- | --- | --- |
| CC1CC(OC(=O)c2ccccc2O)CC(C)(C)C1 (configuration not stated) | % | -0.565 |
| CC(C)=C(C#N)C(=O)N1CCCN(c2cc(NCCC(=O)O)nc(-c3ccccn3)n2)CC1 | % | 3.35 |
| CN1C(C)(C)CCCC1(C)C | % | 0 |
| CNC(=O)c1ccc2c(C(=Nc3cccc(CN(C)C)c3)c3ccccc3)c(O)[nH]c2c1 | % | -0.477 |
| C[C@H]1O[C@@H](O[C@H]2CC[C@@]3(C)C(CC[C@]4(C)C3CC=C3C5CC(C)(C)CC[C@]5(C(=O)O)CC[C@]34C(=O)O)C2(C)C)[C@H](O)[C@@H](O)[C@@H]1O (some centres not stated) | % | -12.2 |

Input: What does the record list as activation for C/C=C(/C=C(C)/C=C/C=C/C=C(\C)C(=O)C12OC1C(O)(CCO)NC2=O)C(=O)OC (configuration not stated) ?
Output: -13.7

Input: # repeat for C[C@@H]1CCC/C=C/[C@H]2CC(=O)C[C@@H]2[C@@H](O)/C=C/C(=O)O1
Output: 9.82

Input: Request: C=C1C(=O)O[C@H]2[C@H]1[C@@H](OC(=O)/C(C)=C\C)C[C@]1(C)O[C@@H]1[C@H]1O[C@H]1C(=C)[C@H]2O
Output: -10.7

Input: Also C=CC(C)(O)CC/C=C(\C)C(=O)O[C@@H]1[C@@H](O)[C@H](OC(C)(C=C)CC/C=C(\C)C(=O)O)O[C@H](CO)[C@H]1OC(=O)/C(C)=C/CCC(C)(O)C=C (some centres not stated) ?
Output: 9.92

* * *

- SYSTEM: Cellular tumor antigen p53 (Homo sapiens)
- PROTOCOL_SUMMARY: Primary qHTS for small molecule compounds that upregulate eGFP-tagged delta133p53alpha (in N-terminal) cells. (AID 2060322);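 note: cells pre-induced with doxycycline then dosed without doxycycline; 0% = DMSO vehicle and 100% = reference activator; nearly all actives have a fitted effect of over 75% in size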
- SETTINGS: NCI-H358 eGFP-delta133p53alpha fluorescence, 24 h; hits give high values
Results filed as inconclusive are left out.
MEASURE: activation (%)
Answer in %, number only, no unit symbol.

Input: May I ask what activation has been recorded for COc1ccc(CCN(C)CCc2ccc(OC)c(OC)c2)cc1OC ?
Output: -16.8

Input: Entry to check: COc1cc(C(=O)NC2CCN(C)CC2)ccc1Nc1ncc2c(n1)N(C1CCCC1)CCC(=O)N2C(C)C
Output: 7.36

Input: // query: CCOc1ccc(-c2cc(NC(=O)c3c(F)cccc3F)c(C(=O)O)s2)cc1
Output: 15.7

Input: Same question for CC1(C)C2CC[C@@]34CC(CC[C@H]3[C@]2(C)CC[C@@H]1O[C@@H]1O[C@H](CO)[C@@H](O)[C@H](O)[C@H]1O)[C@](C)(O)C4 (stereo partly drawn) please.
Output: -22.1

Input: Can you handle C[C@@H](O)[C@H]1C(=O)N2C(C(=O)O)=C([C@H]3CCCO3)S[C@H]12 next?
Output: -8.47

* * *

- SYSTEM: Retinaldehyde dehydrogenase 3 (Homo sapiens) (UniProt P47895)
- PROTOCOL_SUMMARY: qHTS for Inhibitors of the Aldehyde Dehydrogenase Family (ALDH1A3) Primary screen (AID 2061315);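 note: plate controls were DMSO vehicle for no effect and reference inhibitor for full effect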
- SETTINGS: ALDH inhibition qHTS; series mostly up to 56 µM
Records with an inconclusive call do not appear. Calls of active or inactive are those of the source. Calls follow the shape of the dose curve; as a rule, active = well fitted inhibition curve with a large enough effect; inconclusive = small, poorly fitted or top-dose-only effect; inactive = no such curve, though single readings can be large or run the other way.
MEASURE: activity change, negative = inhibition

Observe how each entry below is paired with its result.
| COMPOUND | MEASURE | RESULT |
| --- | --- | --- |
| C[C@@H]1CC[C@]2(C(=O)O)CC[C@]3(C)C(=CCC4[C@]5(C)C(CC[C@]43C)C(C)(C)[C@@H](O)[C@H](O)[C@@H]5O)C2[C@]1(C)O (some centres undefined) | activity change, negative = inhibition | inactive |
| CNC(=O)c1cccc(-c2ccc3c(N4CCOC[C@@H]4C)nc(N4CCOC[C@@H]4C)nc3n2)c1 | activity change, negative = inhibition | inactive |
| Cc1ccc(OCCn2c(CCNC(=O)c3cccs3)nc3ccccc32)cc1 | activity change, negative = inhibition | inactive |
| O=C(N[C@H](Cc1cscn1)C(=O)N[C@@H](CC1CCCCC1)[C@@H](O)[C@@H](O)C1CC1)c1nc2ccccc2[nH]1 | activity change, negative = inhibition | inactive |
| Cc1ccc(CCCO)c(NCc2ccc3nc(NCCCN4CCOCC4)n(Cc4nc(C)ccc4O)c3c2)c1 | activity change, negative = inhibition | inactive |
| C/C1=C\CCC2=C[C@@H](OC2=O)c2c(C)coc2C1 | activity change, negative = inhibition | inactive |
| CC(=O)N(O)CCCCCN1C(=O)CCC1=O | activity change, negative = inhibition | inactive |
| CC12CCC3c4ccc(OC5OC(C(=O)O)C(O)C(O)C5O)cc4CCC3C1CCC2O (centres undefined) | activity change, negative = inhibition | inactive |

Now examine the next entry.
Input: // lookup activity change, negative = inhibition for CC(=O)OC1CC2(C)C(CCC(C)C23Cc2c(O)cc4c(c2O3)CNC4=O)C(C)(C)C1O (centres undefined)
Output: inactive

* * *

- SYSTEM: Cellular tumor antigen p53 (Homo sapiens) (UniProt P04637)
- PROTOCOL_SUMMARY: Primary qHTS for small molecule compounds that upregulate eGFP-tagged delta133p53alpha (in N-terminal) cells. (AID 2060322);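 note: cells pre-induced with doxycycline then dosed without doxycycline; 0% = DMSO vehicle and 100% = reference activator; nearly all actives have a fitted effect of over 75% in size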
- SETTINGS: NCI-H358 eGFP-delta133p53alpha fluorescence, 24 h; hits give high values
Records with an inconclusive call do not appear. The source made the active and inactive calls. Calls follow the shape of the dose curve; as a rule, active = well fitted activation curve with a large enough effect; inconclusive = small, poorly fitted or top-dose-only effect; inactive = no such curve, though single readings can be large or run the other way.
MEASURE: activation

Previously resolved entries follow.
| COMPOUND | activation |
| --- | --- |
| COC(=O)Cn1nc(-c2cccc(OC)c2)c2ccccc21 | -1.67% (inactive) |
| CC1(C)CC[C@]2(C(=O)O)CC[C@]3(C)C(=CCC4[C@@]5(C)C[C@H](O)[C@H](O[C@@H]6O[C@H](CO)[C@@H](O)[C@H](O)[C@H]6O)[C@@](C)(CO)C5[C@H](O)C[C@]43C)[C@@H]2C1 (stereo partly specified) | -13% (inactive) |
| COc1cc(N2CCN(C(C)=O)CC2)ccc1Nc1ncc(Cl)c(Nc2ccc(N3CCN(C(C)=O)CC3)cc2OC)n1 | -5.36% (inactive) |
| Cc1ccc(C(=O)C(=O)O)cc1C | -13% (inactive) |
| CC/C=C\[C@H](O)[C@H](O)C1=C(C)C(=O)[C@]2(O1)C(=O)N[C@@](OC)(C(=O)c1ccccc1)[C@@H]2O | -6.87% (inactive) |

Switching to the query record.
Input: Param readout= activation; system= Cellular tumor antigen p53 (Homo sapiens) (UniProt P04637); entry= Cc1cc(N2CCCCC2)nc2ccccc12 ; returns value.
Output: 13.7% (inactive)

* * *

- PROTOCOL_SUMMARY: BET inhibitor-based combinations targeting novel dependencies in MECOM-rearranged (r) AML: OCI-AML3 cell line (AID 2202232); note: nearly all actives have a fitted effect of over 35% in size
- SETTINGS: CellTiter-Glo luminescence, 48 h; OCI-AML3 viability; series mostly up to 46 µM
Results filed as inconclusive are left out. Activity calls are given as the source filed them. Calls follow the shape of the dose curve; as a rule, active = well fitted inhibition curve with a large enough effect; inconclusive = small, poorly fitted or top-dose-only effect; inactive = no such curve, though single readings can be large or run the other way.
In this exercise, the only acceptable responses are label 1 (active), label 0 (inactive)

Illustrative cases are given below, each with its answer.
| MOLECULE | CATEGORY |
| --- | --- |
| COc1ccccc1N1CCN(CCN(C(=O)C2CCCCC2)c2ccccn2)CC1 | label 0 |
| Cn1cc(-c2ccc3nnc(Sc4ccc5ncccc5c4)n3n2)cn1 | label 0 |
| Cn1c(=O)c(-c2c(Cl)cccc2Cl)cc2cnc(Nc3cccc(C(=O)O)c3)nc21 | label 1 |
| COc1cccc2c1CCCC2CCCN1CCN(C2CCCCC2)CC1 (stereo not given) | label 1 |
| COC(=O)[C@H](c1ccccc1Cl)N1CCc2sccc2C1 | label 0 |

Input: Please let me know the test result on file for O=C(c1ccc(NS(=O)(=O)c2cccc3cccnc23)cc1)N1CCN(CC2CC2)CC1 .
Output: label 0

Input: Input O=C([C@@H](Cc1cccc(C(F)(F)F)c1)NS(=O)(=O)c1cc(F)c2c(c1)CCNC2)N1CCCC1
Output: label 1

Input: Field entry: Cc1cnc(C(=O)NCCc2ccc(S(=O)(=O)NC(=O)NC3CCCCC3)cc2)cn1
Output: label 0

Input: Same thing, different molecule: CC(=O)OCC(CCn1cnc2cnc(N)nc21)COC(C)=O
Output: label 0

Input: Queued: c1ccc2c(-c3cnn4cc(-c5ccc(N6CCNCC6)cc5)cnc34)ccnc2c1
Output: label 1
